System: luciferase activity in the liver
Test: Luciferase activity in liver after intravenous luciferase mRNA LNP
Type: in vivo
Details: Table 13; 0.5 mg/kg IV, 6 h post-IV administration, BALB/c mice (n = 4)
Description: Frozen aliquots of liver were thawed and homogenized in 1 mL of 1×CCLR (Cell Culture Lysis Reagent) using a FastPrep® homogenizer. The homogenate was then centrifuged at 16,000 RPM for 10 minutes at 4° C. Twenty (20) μL of the supernatant was loaded into a 96-well white plate and luminescence measured following addition of luciferase reagent (Promega Luciferase Assay System). Luciferase activity was determined by comparing luminescence of the homogenized samples to luciferase protein standards. […]
Exercise: state measured Luc Activity for each of the compounds provided.
Give bare numbers, in pg/g liver.

| COMPOUND | Luc Activity / pg/g liver |
| --- | --- |
| CCCCCCCCCCC(CCCCCCC(=O)OCC(CCCCCC)CCCCCCCC)N(CCCN(C)C)C(=O)CCCCCCC(=O)OCCC(CCCCCC)CCCCCC (stereo not shown) | 6.26E+07 |
| CCCCC/C=C\CCCC(CCC/C=C\CCCCC)C(CCC/C=C\CCCCC)OC(=O)CCCCN(C)C (stereo not shown) [Compound 13-B43, reference compound] | 7.60E+07 |
| CCCCCCCCCCC(CCCCCCC(=O)OCCC(CCCCCCC)CCCCCCC)N(CCCCCCCC(=O)OCCC(CCCCCCC)CCCCCCC)C(=O)CCCN(C)C (stereo not shown) | 4.58E+07 |
| CCCCCCCCCCC(CCCCCCC(=O)OCC(CCCCCC)CCCCCCCC)N(CCCN(C)C)C(=O)CCCCCCC(=O)OCCC(CCCCCCC)CCCCCCC (stereo not shown) | 4.79E+07 |
| CCCCCCCCCCC(CCCCCCCC(=O)OCCC(CCCCC)CCCCC)N(CCCCCCCCC(=O)OCCC(CCCCC)CCCCC)C(=O)CCCCN(C)C (stereo not shown) | 3.88E+07 |
| CCCCCCCCCCN(C(=O)CCCN(C)C)C(CCCCCCCCC)CCCCCCC(F)(F)C(=O)OC(CCCCC)CCCCC (stereo not shown) | 1.25E+06 |

Consider the additional compound presented here.
Please give the measured Luc Activity for this compound: CCCCCCCCCCC(CCCCCCCC(=O)OC(CCCCCC)CCCCCC)N(CCCCCCCCCC)C(=O)CCCN(C)C (stereo not shown)
9.49E+07

----------
test: Particle characteristics of LNPs containing EGFP mRNA and novel ionizable lipids; format: physicochemical; conditions: Table 22; EGFP mRNA LNP 1.6:54.6:32.8:10.9
ATTRIBUTE MEASURED: Final Product PDI
One number for each entry.

Some solved cases for reference:
| MOLECULE | Final Product PDI |
| --- | --- |
| CCCCCCCCCCC(CCCCCCC(=O)OC(CCCCCCCC)CCCCCCCC)N(CCCCCCC(F)(F)C(=O)OC(CCCCCCCC)CCCCCCCC)C(=O)CCCN(C)C (stereo not drawn) | 0.06 |
| CCCCCCCCCCC(CCCCCCC(=O)OCC(CCCCCC)CCCCCCCC)N(CCCCCCCCCC)C(=O)CCN(C)C (stereo not drawn) | 0.06 |

Which Final Product PDI value is on record for CCCCCCCCCCC(CCCCCCC(=O)OC(CCCCCCC)CCCCCCC)N(CCCCCCC(F)(F)C(=O)OC(CCCCCCC)CCCCCCC)C(=O)CCCN(C)C (stereo not drawn) ?
0.06

----------
test: Parent ionizable lipid remaining in liver at 24 h after EGFP mRNA LNP (LC-MS); assay type: in vivo; conditions: Table 31; 24 h after IV 0.5 mg/kg EGFP mRNA LNP, female BALB/c mice (n = 4)
So I've got a bunch of molecules here, and I need their Parent ionizable lipid remaining in liver, Average values.
Answers are plain numbers, in nmol/g liver.

These recorded examples may help you get a feel for the data.
| MOLECULE | RESULT UNIT | EXPERIMENTAL VALUE |
| --- | --- | --- |
| CCCCCCCCCCN(C(=O)CCCN(C)C)C(CCCCCCCCC)CCCCC(F)C(=O)OCC(CCCCCC)CCCCCCCC (stereo not drawn) [Compound 120] | nmol/g liver | 4.8 |
| CCCCCCCCCCN(C(=O)CCCN(C)C)C(CCCCCCCCC)CCCCC(F)C(=O)OC(CCCCCCC)CCCCCCC (stereo not drawn) [Compound 122] | nmol/g liver | 6.3 |

Entry under review: CCCCCCCCCCN(C(=O)CCCN(C)C)C(CCCCCCCCC)CCCCC(F)C(=O)OC(CCCCCCCC)CCCCCCCC (stereo not drawn) [Compound 123] . Reported Parent ionizable lipid remaining in liver, Average?
10.5

----------
experiment: Particle characteristics of LNPs containing luciferase mRNA and novel ionizable lipids; type: physicochemical; conditions: Table 7; luciferase mRNA LNP 1.6:54.6:32.8:10.9
So I've got a bunch of compounds here, and I need their Final Product Z-avg values.
Give bare numbers, in nm.

// known answers, use as guide
| COMPOUND | Final Product Z-avg / nm |
| --- | --- |
| CCCCCCCCCCN(C(=O)CCCN(C)C)C(CCCCCCCCC)CCCCCCC(F)(F)C(=O)OCCC(CCCCC)CCCCC (stereo not drawn) | 72 |
| CCCCCCCCCC(CCCCCCC(F)C(=O)OCCC(CCCCC)CCCCC)N(CCCCCC(F)C(=O)OCCC(CCCCC)CCCCC)C(=O)CCCN(C)C (stereo not drawn) | 70 |

Now consider a different compound.
Reported Final Product Z-avg, compound CCCCCCCCCCN(C(=O)CCCN(C)C)C(CCCCCCCCC)CCCCCCC(F)C(=O)OCCC(CCCCCC)CCCCCC (stereo not drawn) : ____
69

----------
assay: Parent ionizable lipid remaining in liver at 24 h after EGFP mRNA LNP (LC-MS); type: in vivo; settings: Table 29; 24 h after IV 0.5 mg/kg EGFP mRNA LNP, female BALB/c mice (n = 4)
ATTRIBUTE MEASURED: Parent ionizable lipid remaining in liver, Average (nmol/g liver)
Give bare numbers, in nmol/g liver.

Lab note: each compound below needs its Parent ionizable lipid remaining in liver, Average filled in.
1. CCCCCCCCCCN(C(=O)CCCN(C)C)C(CCCCCCCCC)CCCCCCC(F)(F)C(=O)OC(CCCCCC)CCCCCC (stereo not shown)
2. CCCCCCCCCCN(C(=O)CCCN(C)C)C(CCCCCCCCC)CCCCC(F)(F)C(=O)OCCC(CCCCCC)CCCCCC (stereo not shown)
3. CCCCCCCCCCN(C(=O)CCCN(C)C)C(CCCCCCCCC)CCCCC(F)(F)C(=O)OCC(CCCCCC)CCCCCCCC (stereo not shown)
4. CCCCCCCCCCON(C(=O)CCCCN(C)C)C(CCCCCCCCCC)CCCCCCC(=O)OCCC(CCCCCCC)CCCCCCC (stereo not shown)

1. 8.83
2. 0.00
3. 5.72
4. 19.93

----------
experiment: Parent ionizable lipid remaining in liver at 24 h after EGFP mRNA LNP (LC-MS); assay type: in vivo; details: Table 30; 24 h after IV 0.5 mg/kg EGFP mRNA LNP, female BALB/c mice (n = 4)
ATTRIBUTE MEASURED: Parent ionizable lipid remaining in liver, Average (nmol/g liver)
Answers are plain numbers, in nmol/g liver.

Check out these entries, answers already filled in.
| MOLECULE | EXPERIMENTAL VALUE |
| --- | --- |
| CCCCCCCCCCC(CCCCCCC(=O)OC(CCCCCCC)CCCCCCC)N(CCCCCCC(F)(F)C(=O)OC(CCCCCCC)CCCCCCC)C(=O)CCCN(C)C (centres unmarked) | 49.53 |
| CCCCCCCCCCN(C(=O)CCCN(C)C)C(CCCCCCCCC)CCCCCCC(F)(F)C(=O)OC(CCCCCCCC)CCCCCCCC (centres unmarked) | 51.14 |
| CCCCCCCCCCON(C(=O)CCCN(C)C)C(CCCCCCCCCC)CCCCCCC(F)(F)C(=O)OC(CCCCCCC)CCCCCCC (centres unmarked) | 56.97 |

Batch request: Parent ionizable lipid remaining in liver, Average per item, same order as input.
1. CCCCCCCCCCN(C(=O)CCCN(C)C)C(CCCCCCCCC)CCCCC(F)(F)C(=O)OC(CCCCCCCC)CCCCCCCC (centres unmarked)
2. CCCCCCCCCCC(CCCCCCC(=O)OCC(CCCCCC)CCCCCCCC)N(CCCCCCCCCC)C(=O)CCN(C)C (centres unmarked)

33.07
28.74

----------
assay: Particle characteristics of LNPs containing luciferase mRNA and novel ionizable lipids; format: physicochemical; details: Table 3; luciferase mRNA LNP 1.6:54.6:32.8:10.9
Assignment: determine reported Final Product Z-avg for the given molecules.
Numbers only, in nm.

Example cases with answers are listed next.
| MOLECULE | ATTRIBUTE MEASURED | EXPERIMENTAL VALUE |
| --- | --- | --- |
| CCCCCCCCCCC(CCCCCC(=O)OCC(CCCCCC)CCCCCCCC)N(CCCCCCCCCC)C(=O)CCCCN(C)C (stereo not shown) | Final Product Z-avg | 91 |
| CCCCCCCCCCC(CCCCCC(=O)OCC(CCCCCC)CCCCCCCC)N(CCCCCCCCCC)C(=O)CCCN(C)C (stereo not shown) | Final Product Z-avg | 82 |
| CCCCC/C=C\CCCC(CCC/C=C\CCCCC)NNC(=O)CC(CCCCCCCCC)N(CCCN(C)C)C(=O)CCCCCCCCC (stereo not shown) | Final Product Z-avg | 82 |

# input molecule: CCCCC/C=C\CCCN(CCC/C=C\CCCCC)NC(=O)CC(CCCCCCCCC)N(CCCN(C)C)C(=O)CCCCCCCCC (stereo not shown) ; wanted: its Final Product Z-avg
82
